tested on: Schistosoma mansoni; assay: Antischistosomal activity against adult stage of Schistosoma mansoni assessed as uncoordinated and slowed motility at 5 uM measured after 1 hr; type: functional, organism-based
Active and inactive are the calls of the source. The rule behind the calls is not given here.
MEASUREMENT_TYPE: Activity

Cc1ccc(NC(=O)c2ccc(F)cc2)cc1C: inactive
O=C(Nc1ccc(Cl)c(Cl)c1)c1ccccc1: Active
N#Cc1ccc(C(=O)Nc2cccc(C(F)(F)F)c2)cc1: inactive
N#Cc1ccc(C(=O)Nc2ccccc2)cc1: inactive
COc1ccc(NC(=O)c2ccccc2)cc1OC: inactive
N#Cc1ccc(C(=O)Nc2ccc(F)c(F)c2)cc1: inactive
O=C(Nc1ccc(F)c(F)c1)c1ccccc1: inactive
O=C(Nc1ccc(Cl)nn1)c1cccc(F)c1: inactive
Cc1ccc(NC(=O)c2ccc(C#N)cc2)cc1C: inactive
O=C(Nc1ccc(Cl)c(Cl)c1)c1ccc(F)cc1: Active

Documented Activity of O=C(Nc1ccc(F)c(F)c1)c1ccc(C(F)(F)F)cc1 : Active

Documented Activity of COc1ccc(NC(=O)c2ccc(C#N)cc2)cc1OC : inactive

Documented Activity of Cc1ccc(NC(=O)c2ccc(C(F)(F)F)cc2)cc1C : Active

Documented Activity of COc1ccc(NC(=O)c2cc(Cl)ccc2O)cc1OC : inactive

Documented Activity of Cc1ccc(NC(=O)c2ccccc2)cc1C : inactive

Documented Activity of O=C(Nc1ccccc1)c1ccc(F)cc1 : inactive

Documented Activity of O=C(Nc1ccccc1)c1ccc(C(F)(F)F)cc1 : inactive

Documented Activity of COc1ccc(NC(=O)c2ccc(C(F)(F)F)cc2)cc1OC : inactive

* * *

system: Schistosoma mansoni; assay: Antischistosomal activity against adult stage of Schistosoma mansoni assessed as degenerative and lethal changes at 5 uM measured after 24 hrs; format: functional, organism-based
Activity calls are given as the source filed them. The rule behind the calls is not given here.
# output must be one of active, inactive

Completed entries (count: 4):
O=C(Nc1ccccc1)c1ccc(F)cc1: inactive
Cc1ccc(NC(=O)c2ccccc2)cc1C: inactive
Cc1ccc(NC(=O)c2ccc(C(F)(F)F)cc2)cc1C: active
O=C(Nc1ccc(Cl)nn1)c1cccc(F)c1: inactive

Asked: // param item: COc1ccc(NC(=O)c2ccc(F)cc2)cc1OC ; yields the recorded call
Given back: inactive

Asked: // param item: O=C(Nc1ccccc1)c1ccc(C(F)(F)F)cc1 ; yields the recorded call
Given back: inactive

Asked: // param item: N#Cc1ccc(C(=O)Nc2ccccc2)cc1 ; yields the recorded call
Given back: inactive

Asked: // param item: N#Cc1ccc(C(=O)Nc2ccc(F)c(F)c2)cc1 ; yields the recorded call
Given back: inactive

Asked: // param item: Cc1ccc(NC(=O)c2ccc(F)cc2)cc1C ; yields the recorded call
Given back: inactive

Asked: // param item: O=C(Nc1cccc(C(F)(F)F)c1)c1ccc(C(F)(F)F)cc1 ; yields the recorded call
Given back: active

Asked: // param item: Cc1ccc(NC(=O)c2ccc(C#N)cc2)cc1C ; yields the recorded call
Given back: inactive

Asked: // param item: COc1ccc(NC(=O)c2ccc(C#N)cc2)cc1OC ; yields the recorded call
Given back: inactive

Asked: // param item: O=C(Nc1cccc(C(F)(F)F)c1)c1ccc(F)cc1 ; yields the recorded call
Given back: inactive

* * *

system: Schistosoma mansoni; assay: Antischistosomal activity against adult stage of Schistosoma mansoni assessed as degenerative and lethal changes at 5 uM measured after 24 hrs; format: functional, organism-based
Activity calls are given as the source filed them. No cut-off for these calls is given here.
# output must be one of 1 for active, 0 for inactive

Completed entries (count: 5):
O=C(Nc1ccc(Cl)c(Cl)c1)c1ccc(C(F)(F)F)cc1: 1
COc1ccc(NC(=O)c2ccccc2)cc1OC: 0
O=C(Nc1cccc(C(F)(F)F)c1)c1ccccc1: 0
N#Cc1ccc(C(=O)Nc2cccc(C(F)(F)F)c2)cc1: 0
COc1ccc(NC(=O)c2ccc(C(F)(F)F)cc2)cc1OC: 0

Asked: // param item: O=C(Nc1ccc(F)c(F)c1)c1ccc(F)cc1 ; yields the recorded call
Given back: 0

Asked: // param item: O=C(Nc1ccc(F)c(F)c1)c1ccccc1 ; yields the recorded call
Given back: 0
